Reported T/C by item:
- System: L1210 leukemia ip in BDF1 mice, survival T/C
- procedureDetails: NCI In Vivo Anticancer Drug Screen. Data for tumor model L1210 Leukemia (intraperitoneal) in B6D2F1 (BDF1) mice
- conditionsUsed: endpoint: mean survival time; dose: 25.0 mg/kg/injection; schedule: Q01DX001 (ip); vehicle: Klucel (hydroxypropylcellulose) (HPC); higher = longer survival
Inconclusive results and toxic doses are left out.
measure: T/C

>>> df
                                   molecule                        targetortestsystem  measure        assayvalue
0  CC1(C)C2CCC1(C)C(N=C(N)CSS(=O)(=O)O)C2 (centres undefined)  L1210 leukemia ip in BDF1 mice, survival T/C      T/C  101 % of control
1                        COc1cccc(OC#N)c1OC  L1210 leukemia ip in BDF1 mice, survival T/C      T/C   98 % of control
2                     O=C(O)c1ccc(CCCCl)cc1  L1210 leukemia ip in BDF1 mice, survival T/C      T/C  103 % of control
3                         CNC1=CC(=O)C1(F)F  L1210 leukemia ip in BDF1 mice, survival T/C      T/C  108 % of control
